Source listed as patent US20190218277A1.

Recorded pKd for the following binders
target: T1, Recombinant soluble E protein (0.8E-His) from DENV-2 (DENV-2, UniProt P14340 281-675)
T1 construct: also called DENV-2 E protein; DV2
In textbook form, pKd equals minus log to base ten of the concentration in mol/L.

Known pKd results, listed for orientation:
[[record]]
binder = "DG_3CH912-SG182/3CL-SK1 (antibody, human IgG1, kappa, V domains shown) VH: QVQLVQSGPDVEKPGASVKVSCKASGYTFTSNYIHWVRQAPGQGLEWMGVINPRGGSRASAQKFQGRITMTRDTSTSTVYMELSSLRSEDTAVYYCARGGRALFYDSYTTPFDGGSWWFDPWGQGSLVTVSS VL: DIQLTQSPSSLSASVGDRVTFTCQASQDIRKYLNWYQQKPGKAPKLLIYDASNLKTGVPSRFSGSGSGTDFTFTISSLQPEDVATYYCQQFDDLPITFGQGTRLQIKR"
readout_label = "pKd"
value_reported = 9.09

[[record]]
binder = "DG_3CH955-SG182/3CL563-SK1 (antibody, human IgG1, kappa, V domains shown) VH: QVQLVQSGPDVEKPGASVKVSCKASGYTFTSNYIHWVRQAPGQGLEWMGVINPRGGSRRSAQKFQGRITMTRDTSTSTVYMELSSLRSEDTAVYYCARGGRALFYDSYTTPRDLGSWWFDPWGQGSLVTVSS VL: DIQLTQSPSSLSASVGDRVTFTCQASQDIRQYLNWYQQKPGKAPKLLIYDASNLKFGVPSRFSGSGSGTDFTFTISSLQPEDVATYYCQQFSALPITFGQGTRLQIKR"
readout_label = "pKd"
value_reported = 8.98

[[record]]
binder = "DG_3CH954-SG182/3CL-SK1 (antibody, V domains shown) VH: QVQLVQSGPDVEKPGASVKVSCKASGYTFTSNYIHWVRQAPGQGLEWMGVINPRGGSRRSAQKFQGRITMTRDTSTSTVYMELSSLRSEDTAVYYCARGGRALFYDSYTTPRDDGSWWFDPWGQGSLVTVSS VL: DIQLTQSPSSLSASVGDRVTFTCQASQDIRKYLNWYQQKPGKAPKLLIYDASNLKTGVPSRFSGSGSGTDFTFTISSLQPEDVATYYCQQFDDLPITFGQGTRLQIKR"
readout_label = "pKd"
value_reported = 9.91


Lab note: next binder to report on.
Prompt line: I would be grateful if you could share the reported pKd for DG_3CH953-SG182/3CL499-SK1 (antibody, V domains shown) VH: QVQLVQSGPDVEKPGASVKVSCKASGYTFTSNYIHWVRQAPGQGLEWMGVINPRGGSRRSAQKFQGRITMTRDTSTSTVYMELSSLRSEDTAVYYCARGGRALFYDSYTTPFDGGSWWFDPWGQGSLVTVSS VL: DIQLTQSPSSLSASVGDRVTFTCQASQDIRKYLNWYQQKPGKAPKLLIYDASNLKFGVPSRFSGSGSGTDFTFTISSLQPEDVATYYCQQFDALPITFGQGTRLQIKR .
Response line: 9.04
